testedSystem: SMYD2 (Homo sapiens, UniProt Q9NRG4)
Construct: Full length SMYD2 (NP 064582.2) was cloned; His6 (N, cleaved yes); FLAG (N); made in house; host or cells: Sf9 insect cells
Sequence (Q9NRG4 whole entry): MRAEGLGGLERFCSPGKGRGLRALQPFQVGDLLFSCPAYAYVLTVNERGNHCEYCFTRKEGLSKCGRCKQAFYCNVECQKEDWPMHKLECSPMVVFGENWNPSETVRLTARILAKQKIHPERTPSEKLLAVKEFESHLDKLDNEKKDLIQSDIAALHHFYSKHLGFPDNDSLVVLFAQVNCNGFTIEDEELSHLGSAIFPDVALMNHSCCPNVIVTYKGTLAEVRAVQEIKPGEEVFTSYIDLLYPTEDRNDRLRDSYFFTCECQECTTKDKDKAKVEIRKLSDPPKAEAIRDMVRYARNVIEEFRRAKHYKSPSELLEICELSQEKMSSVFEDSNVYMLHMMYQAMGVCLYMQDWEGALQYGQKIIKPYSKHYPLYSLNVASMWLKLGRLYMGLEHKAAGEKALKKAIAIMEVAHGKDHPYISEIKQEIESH
assayName: SMYD2 Biochemical Assay (3H-SAM, biotinylated peptide substrate, Flashplate)
assaySetup: IC50 values are an average of n = 1 to n = 50; read-out: SMYD2 Biochem IC50 (μM)*
measurementType: IC50 (µM)
Report only the number, with the unit µM understood.

Prompt: Fill in the recorded IC50 for this compound, with SMYD2 (Homo sapiens, UniProt Q9NRG4) as test system: CC(C)N1C[C@H](C)[C@H](NC(=O)c2cc(C3CCC3)on2)C1 (racemic)
Response: 10.5

Prompt: // lookup IC50 | system=SMYD2 (Homo sapiens, UniProt Q9NRG4) | key= C[C@H]1CN(Cc2ccccc2Cl)C[C@H]1NC(=O)c1cc(C2CC2)on1 (racemic)
Response: 3.02

Origin of the recorded values: patent US20170253601A1
